# measurementDescription: soluble on expression in E. coli; label from the status in PepcDB or PDB records
endpointName: soluble on expression in E. coli

>  <constructSequence>
MSDAPTVVAYLGPAGTFTEEALYKFADAGVFGDGEIEQLPAKSPQEAVDAVRHGTAQFAVVAIENFVDGPVTPTFDALDQGSNVQIIAEEELDIAFSIMVRPGTSLADVKTLATHPVGYQQVKNWMATTIPDAMYLSASSNGAGAQMVAEGTADAAAAPSRAAELFGLERLVDDVADVRGARTRFVAVQAQAA

>  <val>
not soluble

$$$$
>  <constructSequence>
AIAGANEDQEMELEALRSIYEGDNSFRELSPVSFQYRIGEDGDPKAFLIEVSWTETYPQTAPVISMNAFFNNTISSAVKQSILAKLQEAVEVNLGTAMTYTLFEYAKDHKEQFMENHHPGNSATPVANIISVETPTTAPSSKKKEKKEQLSKAQKRKLADKTDHKGELPRGWNWVDVVKHLSKTGSKDDE

>  <val>
soluble

$$$$
>  <constructSequence>
EVQLVESGGGLVQPGGSLRLSCAASGFTFTSTGISWVRQAPGKGLEWVGRIYPTNGSTNYADSVKGRFTISADTSKNTAYLQMNSLRAEDTAVYYCARTYGIYDLYVDYTEYVMDYWGQGTLVTVSSASTKGPSVFPLAPSSKSTSGGTAALGCLVKDYFPEPVTVSWNSGALTSGVHTFPAVLQSSGLYSLSSVVTVPSSSLGTQTYICNVNHKPSNTKVDKKVEPKSCDKTHT

>  <val>
soluble

$$$$
>  <constructSequence>
MNKAIFLDRDGTLNIDYGYVHEIDNFKFIDGVIDALRELKKMGYMLVLVTNQSGIARGYFSEDQFLQLTEWMDWSLAEQDVDLDGIYYCPHHSEGKGEYKEDCDCRKPKSGMLLQAIKELKIDPTQSIMVGDKVEDLKAGIGAKVKMNVLVRTGKPVTGEGEGIADYVLDSIVDLPRILKRLKKLEHHHHHH

>  <val>
not soluble

$$$$

---

# measurementDescription: soluble on expression in E. coli; label from the status in PepcDB or PDB records
endpointName: soluble on expression in E. coli

>  <constructSequence>
MAHHHHHHMSENVAAAQRRWQAGMHEVEAYLNALDSARADSAKAGLYHRAQQCMQHMEKIIRLLAKRIAREANIMAERARQALTEQQRLLQRNLRKRWKTKMLVYEENASAMLAAAEQHHYAERVREDERAHEELRSVRAGGSMAHSRSSKVQHLQSEIQLYLRQHRYREAERAQAQLSRFEKQEQQSQQRNLTHLQEQRLQAMRMKQEEQLAKMKAAYQQEKQEITRTCRAELDAMTRQHEVALQAVEERRLFLHERVQAILKAYNDADTLDPRAAGQKLIRISQLLWTSREVQQSSKRI

>  <soluble on expression in E. coli>
not soluble

$$$$
>  <constructSequence>
MAHHHHHHMRILHKLGKNVFQTARRSFSLVTKQAHDFTAQGLNKNNEIINVQLSSYIGKKYCCLLFYPLNYTFVCPTEIIEFNKHVKSFEEKNVELLGISVDSVYSHLAWKNMPIEKGGIGNVNFTLVSDLNKEISKMYNVLYENSFALRGLFIIDLQGKVRHQTVNDLPLGRSVDEVLRTIDSIIHVDKTGDVCPINWKKGAKSFQPTNDSLLNYLNTEVKKE

>  <soluble on expression in E. coli>
soluble

$$$$
>  <constructSequence>
MGSDKIHHHHHHMRSLTNAEIAHNRLLNSGLLQSKFSSAEDATRALFGIQSQYQQFGEISLFNRVPNLTKENLQMAYDDKGIIKIWGQRMTIHMYTPDDWFYVHDVYANKNNWLRKHADSLGRDLDEILVQMEELLLREDKVSKESFAALLGNEAKELMTWGGVFIQGSLDGKLFCVPESPKTKFYSHRNQIDSEREDAWITNKRSKTGLETMIDRYFSAFGPATIQDFKHWSGLRNSDYIETLEKLLENYICYIGEDGKNYYSKAKTQENVEMGSPLLLGKFDPLFVSYAKKNWLASEKETSLIWRTAGQIEAVLIINAQFFGTWRYKISGDKIVFQFYLSKKLTKKGQKLVEKEAIKLAEFLLKNYQGSIFEQI

>  <soluble on expression in E. coli>
not soluble

$$$$
>  <constructSequence>
MSEKLDLTRFEKKMVIRNIEEKDIDKIIDLQKDCFPGMEPWKREHLISHLEHFPEGQFCAEFEGEIIGSCSSLLINFDEYDDRHTWQDITDDGYITNHNPDGLNMYGIEVMVHPKYRRMKIGHRLYEARKDLARRLSLKSIIIGGRIPNYHKYAEEMTAREYVEQVTRHQIYDPVLSFQLMNGFTLMRINPNYLPDDTASIKY

>  <soluble on expression in E. coli>
not soluble

$$$$
>  <constructSequence>
MAHHHHHHMDKYGDRKLQEGIYKLNNKKIKGYIPFQSASSIIPKQIRDKGIIEVMKELEKREEELNEKTKNDQEKHKVNKMNLFKSNSMNVKRKHVFSSFKIPRKI

>  <soluble on expression in E. coli>
soluble

$$$$

# context switch: different sequence, same soluble on expression in E. coli
Need soluble on expression in E. coli, item MGSDKIHHHHHHMNRKLIQIDQLKNQLTQYRPLSESEVKRLREEFIIESSYNSNAIEGNTITLRETVLILKEGMTIAEKPLREHLDIIGFKDAFNYIYELVANNEPLSERTIKDIHSLVLMNNAEGRGVYRKIPVRILGAENEPTAPYLIAEEMQSLIEKYQQKLTALHPIEAISWLHLAFESIHPFIDGNGRTGRLLINFELLKHGYLPVDIKFTHRANYYQCFDDFHKNQQDISRLVELISRYELTELERYLAILEQRT
not soluble
